# maps each entry to its EC50
system: T. gondii tachyzoites RH strain; assay: Treatment of T. gondii-infected Vero cells (MTS-PMS assay); format: cell-based, Toxoplasma gondii; details: Toxoplasma gondii; T. gondii-infected Vero cells, 24 hours treatment, MTS-PMS; read-out: EC50 against T. gondii
outcome-measure: EC50 (µg/mL)

compound="Nc1cc(Cl)ccc1N1C(=O)CCC1=O [NSC660301]" measured_value=3.43
compound="NCCN1CCNCC1 [NSC38968, 2-(piperazin-1-yl)ethan-1-amine]" measured_value=4.82
compound="CC1=C(C(N)=O)S(=O)(=O)c2ccccc21 [NSC108972]" measured_value=7.17
compound="CCOC1CCc2c(C)nc(N)nc2S1 (centres unmarked) [NSC77468]" measured_value=1.92
compound="NS(=O)(=O)c1ccc(Cl)cc1[N+](=O)[O-] [NSC81213, 4-chloro-2-nitrobenzene-1-sulfonamide]" measured_value=4.75
